The reader will find reported Activity values listed item by item below.
Organism: Rattus norvegicus
assay.notes: Effect on electron transport protein complex 2 in Wistar-Han rat liver mitochondria using succinate as substrate assessed as mitochondrial transmembrane electric potential at 3 ug/mg relative to control

[
  {
    "given.smiles": "C=C(C)[C@@H]1CC[C@]2(COC(=O)C[n+]3ccc(N(C)C)cc3)CC[C@]3(C)[C@H](CC[C@@H]4[C@@]5(C)CC[C@H](OC(=O)C[n+]6ccc(N(C)C)cc6)C(C)(C)[C@@H]5CC[C@]43C)[C@@H]12.[Br-].[Br-]",
    "Activity": "232 mV"
  },
  {
    "given.smiles": "C=C(C)[C@@H]1CC[C@]2(CO)CC[C@]3(C)[C@H](CC[C@@H]4[C@@]5(C)CC[C@H](OC(=O)C[n+]6ccc(N(C)C)cc6)C(C)(C)[C@@H]5CC[C@]43C)[C@@H]12.[Cl-]",
    "Activity": "232 mV"
  },
  {
    "given.smiles": "C=C(C)[C@@H]1CC[C@]2(COC(=O)C[n+]3ccc(N(C)C)cc3)CC[C@]3(C)[C@H](CC[C@@H]4[C@@]5(C)CC[C@H](O)C(C)(C)[C@@H]5CC[C@]43C)[C@@H]12",
    "Activity": "226 mV"
  },
  {
    "given.smiles": "C=C(C[n+]1ccc(N(C)C)cc1)[C@@H]1CC[C@]2(C(=O)O)CC[C@]3(C)[C@H](CC[C@@H]4[C@@]5(C)CC[C@H](O)C(C)(C)[C@@H]5CC[C@]43C)[C@@H]12.[Br-]",
    "Activity": "228 mV"
  },
  {
    "given.smiles": "C=C(C[n+]1ccc(N(C)C)cc1)[C@@H]1CC[C@]2(COC(=O)C[n+]3ccc(N(C)C)cc3)CC[C@]3(C)[C@H](CC[C@@H]4[C@@]5(C)CC[C@H](OC(=O)C[n+]6ccc(N(C)C)cc6)C(C)(C)[C@@H]5CC[C@]43C)[C@@H]12.[Br-].[Br-].[Br-]",
    "Activity": "232 mV"
  }
]

###

Organism: Rattus norvegicus
assay.notes: Effect on electron transport protein complex 1 in Wistar-Han rat liver mitochondria using glutamate/malate as substrate assessed as mitochondrial transmembrane electric potential at 6 ug/mg relative to control
Below, each entry is listed with its recorded Activity.
observed.property: Activity (mV)

[
  {
    "given.smiles": "C=C(C)[C@@H]1CC[C@]2(CO)CC[C@]3(C)[C@H](CC[C@@H]4[C@@]5(C)CC[C@H](OC(=O)C[n+]6ccc(N(C)C)cc6)C(C)(C)[C@@H]5CC[C@]43C)[C@@H]12.[Cl-]",
    "unit.abbrev": "mV",
    "measured.value": 222
  },
  {
    "given.smiles": "C=C(C)[C@@H]1CC[C@]2(COC(=O)C[n+]3ccc(N(C)C)cc3)CC[C@]3(C)[C@H](CC[C@@H]4[C@@]5(C)CC[C@H](O)C(C)(C)[C@@H]5CC[C@]43C)[C@@H]12",
    "unit.abbrev": "mV",
    "measured.value": 225
  },
  {
    "given.smiles": "C=C(C)[C@@H]1CC[C@]2(COC(=O)C[n+]3ccc(N(C)C)cc3)CC[C@]3(C)[C@H](CC[C@@H]4[C@@]5(C)CC[C@H](OC(=O)C[n+]6ccc(N(C)C)cc6)C(C)(C)[C@@H]5CC[C@]43C)[C@@H]12.[Br-].[Br-]",
    "unit.abbrev": "mV",
    "measured.value": 225
  },
  {
    "given.smiles": "C=C(C[n+]1ccc(N(C)C)cc1)[C@@H]1CC[C@]2(COC(=O)C[n+]3ccc(N(C)C)cc3)CC[C@]3(C)[C@H](CC[C@@H]4[C@@]5(C)CC[C@H](OC(=O)C[n+]6ccc(N(C)C)cc6)C(C)(C)[C@@H]5CC[C@]43C)[C@@H]12.[Br-].[Br-].[Br-]",
    "unit.abbrev": "mV",
    "measured.value": 226
  },
  {
    "given.smiles": "C=C(C[n+]1ccc(N(C)C)cc1)[C@@H]1CC[C@]2(C(=O)O)CC[C@]3(C)[C@H](CC[C@@H]4[C@@]5(C)CC[C@H](O)C(C)(C)[C@@H]5CC[C@]43C)[C@@H]12.[Br-]",
    "unit.abbrev": "mV",
    "measured.value": 229
  }
]

###

Species: Rattus norvegicus
assay.notes: Effect on electron transport protein complex 2 in Wistar-Han rat liver mitochondria using succinate as substrate assessed as ADP-induced depolarization at 6 ug/mg relative to control

[
  {
    "given.smiles": "C=C(C)[C@@H]1CC[C@]2(COC(=O)C[n+]3ccc(N(C)C)cc3)CC[C@]3(C)[C@H](CC[C@@H]4[C@@]5(C)CC[C@H](OC(=O)C[n+]6ccc(N(C)C)cc6)C(C)(C)[C@@H]5CC[C@]43C)[C@@H]12.[Br-].[Br-]",
    "Activity": "27.7%"
  },
  {
    "given.smiles": "C=C(C[n+]1ccc(N(C)C)cc1)[C@@H]1CC[C@]2(COC(=O)C[n+]3ccc(N(C)C)cc3)CC[C@]3(C)[C@H](CC[C@@H]4[C@@]5(C)CC[C@H](OC(=O)C[n+]6ccc(N(C)C)cc6)C(C)(C)[C@@H]5CC[C@]43C)[C@@H]12.[Br-].[Br-].[Br-]",
    "Activity": "27.8%"
  },
  {
    "given.smiles": "C=C(C[n+]1ccc(N(C)C)cc1)[C@@H]1CC[C@]2(C(=O)O)CC[C@]3(C)[C@H](CC[C@@H]4[C@@]5(C)CC[C@H](O)C(C)(C)[C@@H]5CC[C@]43C)[C@@H]12.[Br-]",
    "Activity": "13.8%"
  },
  {
    "given.smiles": "C=C(C)[C@@H]1CC[C@]2(CO)CC[C@]3(C)[C@H](CC[C@@H]4[C@@]5(C)CC[C@H](OC(=O)C[n+]6ccc(N(C)C)cc6)C(C)(C)[C@@H]5CC[C@]43C)[C@@H]12.[Cl-]",
    "Activity": "29.9%"
  },
  {
    "given.smiles": "C=C(C)[C@@H]1CC[C@]2(COC(=O)C[n+]3ccc(N(C)C)cc3)CC[C@]3(C)[C@H](CC[C@@H]4[C@@]5(C)CC[C@H](O)C(C)(C)[C@@H]5CC[C@]43C)[C@@H]12",
    "Activity": "27.8%"
  }
]

###

Test system: BJ
assay.notes: Induction of mitochondrial depolarization in human BJ cells at 1 ug/ml after 48 hrs by MitoTracker Red staining
Type: cell-based

[
  {
    "given.smiles": "C=C(C)[C@@H]1CC[C@]2(CO)CC[C@]3(C)[C@H](CC[C@@H]4[C@@]5(C)CC[C@H](OC(=O)C[n+]6ccc(N(C)C)cc6)C(C)(C)[C@@H]5CC[C@]43C)[C@@H]12.[Cl-]",
    "Activity": "Toxic"
  },
  {
    "given.smiles": "C=C(C[n+]1ccc(N(C)C)cc1)[C@@H]1CC[C@]2(COC(=O)C[n+]3ccc(N(C)C)cc3)CC[C@]3(C)[C@H](CC[C@@H]4[C@@]5(C)CC[C@H](OC(=O)C[n+]6ccc(N(C)C)cc6)C(C)(C)[C@@H]5CC[C@]43C)[C@@H]12.[Br-].[Br-].[Br-]",
    "Activity": "Toxic"
  },
  {
    "given.smiles": "C=C(C)[C@@H]1CC[C@]2(COC(=O)C[n+]3ccc(N(C)C)cc3)CC[C@]3(C)[C@H](CC[C@@H]4[C@@]5(C)CC[C@H](OC(=O)C[n+]6ccc(N(C)C)cc6)C(C)(C)[C@@H]5CC[C@]43C)[C@@H]12.[Br-].[Br-]",
    "Activity": "Toxic"
  }
]

###

Measured Activity accompanies every entry in the list below.
Organism: Rattus norvegicus
assay.notes: Effect on electron transport protein complex 1 in Wistar-Han rat liver mitochondria using glutamate/malate as substrate assessed as mitochondrial transmembrane electric potential at 3 ug/mg relative to control

[
  {
    "given.smiles": "C=C(C)[C@@H]1CC[C@]2(COC(=O)C[n+]3ccc(N(C)C)cc3)CC[C@]3(C)[C@H](CC[C@@H]4[C@@]5(C)CC[C@H](O)C(C)(C)[C@@H]5CC[C@]43C)[C@@H]12",
    "Activity / mV": 225
  },
  {
    "given.smiles": "C=C(C)[C@@H]1CC[C@]2(COC(=O)C[n+]3ccc(N(C)C)cc3)CC[C@]3(C)[C@H](CC[C@@H]4[C@@]5(C)CC[C@H](OC(=O)C[n+]6ccc(N(C)C)cc6)C(C)(C)[C@@H]5CC[C@]43C)[C@@H]12.[Br-].[Br-]",
    "Activity / mV": 225
  },
  {
    "given.smiles": "C=C(C[n+]1ccc(N(C)C)cc1)[C@@H]1CC[C@]2(COC(=O)C[n+]3ccc(N(C)C)cc3)CC[C@]3(C)[C@H](CC[C@@H]4[C@@]5(C)CC[C@H](OC(=O)C[n+]6ccc(N(C)C)cc6)C(C)(C)[C@@H]5CC[C@]43C)[C@@H]12.[Br-].[Br-].[Br-]",
    "Activity / mV": 225
  },
  {
    "given.smiles": "C=C(C)[C@@H]1CC[C@]2(CO)CC[C@]3(C)[C@H](CC[C@@H]4[C@@]5(C)CC[C@H](OC(=O)C[n+]6ccc(N(C)C)cc6)C(C)(C)[C@@H]5CC[C@]43C)[C@@H]12.[Cl-]",
    "Activity / mV": 222
  },
  {
    "given.smiles": "C=C(C[n+]1ccc(N(C)C)cc1)[C@@H]1CC[C@]2(C(=O)O)CC[C@]3(C)[C@H](CC[C@@H]4[C@@]5(C)CC[C@H](O)C(C)(C)[C@@H]5CC[C@]43C)[C@@H]12.[Br-]",
    "Activity / mV": 229
  }
]
